Sourced from ChEMBL document CHEMBL4387755

target or test system: UniProt:P49286
Sequence (P49286 whole entry): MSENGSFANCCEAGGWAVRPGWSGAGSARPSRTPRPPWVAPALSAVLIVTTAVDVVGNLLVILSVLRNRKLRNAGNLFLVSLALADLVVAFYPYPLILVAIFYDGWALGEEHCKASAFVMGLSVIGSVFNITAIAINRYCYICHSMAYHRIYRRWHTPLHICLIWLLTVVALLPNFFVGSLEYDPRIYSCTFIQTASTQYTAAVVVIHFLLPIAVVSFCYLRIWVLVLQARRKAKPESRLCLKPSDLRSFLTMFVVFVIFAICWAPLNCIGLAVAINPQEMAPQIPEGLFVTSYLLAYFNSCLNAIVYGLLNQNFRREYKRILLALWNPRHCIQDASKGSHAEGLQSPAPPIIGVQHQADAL
protocol notes: Agonist activity at MT2 receptor (unknown origin) expressed in HEK293 cells at 0.5 mM by Fluo-8 dye-based calcium assay relative to control
Format: functional, cell-based
value kind: Activity

smiles representation	result
CCOCc1cc(Cc2ccc(O)cc2)ccc1O	117%
CCOCc1ccc(O)c(Cc2ccc(O)c(Cc3ccc(O)cc3)c2)c1	-10.4%
CCOCc1cc(Cc2ccc(O)cc2)c(O)c(Cc2ccc(O)c(Cc3ccc(O)cc3)c2)c1	29.5%
Oc1ccc(Cc2cc(Oc3ccc(O)cc3)ccc2O)cc1	51.2%
Oc1ccc(Cc2ccc(O)c(Cc3ccccc3Cc3ccccc3)c2)cc1	-6.7%
CCOCc1ccc(O)c(Cc2ccc(O)c(COCC)c2)c1	5.3%
Oc1ccc(COc2ccc(Cc3ccc(O)cc3)cc2)cc1	15.3%
OC[C@H]1O[C@@H](Oc2ccc(Sc3ccc(O)cc3)cc2)[C@H](O)[C@@H](O)[C@@H]1O	-2.2%
Oc1ccc(Cc2ccc(O)c(Cc3ccc(O)cc3)c2)cc1	134%
Oc1ccc(Cc2ccc(O)c(Cc3ccccc3)c2)cc1	-6.6%
CN(c1ccc(O)cc1)c1ccc(O)cc1	44.7%
CCOCc1ccc(O)c(Cc2ccc(O)cc2)c1	38.3%
Oc1ccc(Sc2ccc(O)cc2)cc1	94.1%
Oc1ccc(Oc2ccc(O)cc2)cc1	67.1%
Oc1ccc(Cc2ccc(O)cc2)cc1	103%
CC(=O)OC[C@H]1O[C@@H](Oc2ccc(Sc3ccc(O[C@@H]4O[C@H](COC(C)=O)[C@@H](OC(C)=O)[C@H](OC(C)=O)[C@H]4OC(C)=O)cc3)cc2)[C@H](OC(C)=O)[C@@H](OC(C)=O)[C@@H]1OC(C)=O	-3.6%
Oc1ccc(Cc2cc(Sc3ccc(O)cc3)ccc2O)cc1	48.4%
CC(=O)OC[C@H]1O[C@@H](Oc2ccc(Sc3ccc(O)cc3)cc2)[C@H](OC(C)=O)[C@@H](OC(C)=O)[C@@H]1OC(C)=O	8.5%
Oc1ccc(COCc2ccc(O)c(Cc3ccc(O)cc3)c2)cc1	59.4%
